Just for reference, ChEMBL document CHEMBL1201862 is where these values come from.

tested on: SNB-19; test: NCI tumour cell line growth inhibition, 48 h
Calls of active or inactive are those of the source. Rule as the data show it: active = GI50 up to about 1.1 µM and inactive = higher.
Classes used: label 1 = active, label 0 = inactive

{"Compound": "CNc1ncnc(Sc2nc(N)nc3[nH]cnc23)c1[N+](=O)[O-]", "Assigned category": "label 0"}
{"Compound": "Cc1cc(Br)cc(C)c1NC(=O)C(=O)C(C(=O)c1ccc(Cl)c(Cl)c1)C1OC(=O)c2ccccc21 (centres undefined)", "Assigned category": "label 0"}
{"Compound": "Clc1cccc(-c2sc(-c3cccs3)cc2Cc2cccs2)c1", "Assigned category": "label 0"}
{"Compound": "CO/N=C(\\C)c1cccc(Nc2c3ccccc3nc3occc23)c1", "Assigned category": "label 0"}
{"Compound": "COc1ccccc1N1C(=O)CC(=O)N(C(=O)CCCCCCCCC(=O)N2C(=O)CC(=O)N(c3ccccc3OC)C2=S)C1=S", "Assigned category": "label 0"}
{"Compound": "COC(=O)[C@@H](O)[C@](O)(CCC(C)C)C(=O)O[C@@H]1C(OC)=C[C@]23CCCN2CCc2cc4c(cc2[C@H]13)OCO4", "Assigned category": "label 1"}
{"Compound": "CCOC(=O)C(NC(=O)c1cccc(Cl)c1)(Nc1cccc(C)c1)C(F)(F)F (centres undefined)", "Assigned category": "label 0"}
{"Compound": "Cc1cc2ccccc2n1CC(=O)NCC(C)C", "Assigned category": "label 0"}
{"Compound": "Cc1cc(C)nc(NC(=S)Nc2ccc([N+](=O)[O-])cc2)c1", "Assigned category": "label 0"}
